# experiment.summary: Toxicity liver stage against HepG2, at 10uM
# Assay type: cell-based
# Design: test concentration 10 uM, cell line HepG2-A16-CD81EGFP
# condition.parameters: human, HepG2-A16-CD81EGFP cells; read-out: INHIBITION
Listed below: cytotoxicity at 10 µM values for each entry.
reported.property: cytotoxicity at 10 µM

compound | observed.measurement
O=C1N(Cc2ccc(F)c(F)c2)CCCC1(O)CNCc1ncc[nH]1 (stereo unspecified) | -4.27%
CN(C)Cc1nnc(C(=O)N(C)Cc2ccc(C(F)(F)F)cc2)o1 | -6.72%
CCC(Oc1ccc(N(C)S(C)(=O)=O)cc1)C(=O)N(C)C (stereo unspecified) | -4.97%
CS(=O)(=O)CCC(=O)NC1CC(c2ccccc2Cl)C1 (stereo unspecified) | -4.19%
COC(=O)CNC(=O)CSCc1nc(O)c2cc(C(C)C)sc2n1 | 7.72%
O=C(NCCCO)Nc1cccc(C[S+]([O-])Cc2ccccc2)c1 (stereo unspecified) | -1.06%
CCN(C)c1ncnc2c1CCN(S(=O)(=O)c1ccccc1)CC2 | -106%
COCCN1CCC(CNC(=O)C2(c3cc(C)cc(C)c3)CC2)CC1 | -7.94%
Cc1c(Cl)cccc1NC(=O)N1CCN(Cc2ccccn2)CC1 | -5.55%
CC1(C(=O)N2CCN(c3ncccn3)CC2)CNCCO1 (stereo unspecified) | -0.79%
COCCNC(=O)NC1(c2nc(C)no2)CCCCC1 | 1.56%
